Data origin, for the record: patent US9321773B2

Consider the following compounds; for each one, report its IC50.
# ASSAY_TARGET: recombinant PI3 kinase α (Homo sapiens (Human))
# Sequence (P42336 whole entry): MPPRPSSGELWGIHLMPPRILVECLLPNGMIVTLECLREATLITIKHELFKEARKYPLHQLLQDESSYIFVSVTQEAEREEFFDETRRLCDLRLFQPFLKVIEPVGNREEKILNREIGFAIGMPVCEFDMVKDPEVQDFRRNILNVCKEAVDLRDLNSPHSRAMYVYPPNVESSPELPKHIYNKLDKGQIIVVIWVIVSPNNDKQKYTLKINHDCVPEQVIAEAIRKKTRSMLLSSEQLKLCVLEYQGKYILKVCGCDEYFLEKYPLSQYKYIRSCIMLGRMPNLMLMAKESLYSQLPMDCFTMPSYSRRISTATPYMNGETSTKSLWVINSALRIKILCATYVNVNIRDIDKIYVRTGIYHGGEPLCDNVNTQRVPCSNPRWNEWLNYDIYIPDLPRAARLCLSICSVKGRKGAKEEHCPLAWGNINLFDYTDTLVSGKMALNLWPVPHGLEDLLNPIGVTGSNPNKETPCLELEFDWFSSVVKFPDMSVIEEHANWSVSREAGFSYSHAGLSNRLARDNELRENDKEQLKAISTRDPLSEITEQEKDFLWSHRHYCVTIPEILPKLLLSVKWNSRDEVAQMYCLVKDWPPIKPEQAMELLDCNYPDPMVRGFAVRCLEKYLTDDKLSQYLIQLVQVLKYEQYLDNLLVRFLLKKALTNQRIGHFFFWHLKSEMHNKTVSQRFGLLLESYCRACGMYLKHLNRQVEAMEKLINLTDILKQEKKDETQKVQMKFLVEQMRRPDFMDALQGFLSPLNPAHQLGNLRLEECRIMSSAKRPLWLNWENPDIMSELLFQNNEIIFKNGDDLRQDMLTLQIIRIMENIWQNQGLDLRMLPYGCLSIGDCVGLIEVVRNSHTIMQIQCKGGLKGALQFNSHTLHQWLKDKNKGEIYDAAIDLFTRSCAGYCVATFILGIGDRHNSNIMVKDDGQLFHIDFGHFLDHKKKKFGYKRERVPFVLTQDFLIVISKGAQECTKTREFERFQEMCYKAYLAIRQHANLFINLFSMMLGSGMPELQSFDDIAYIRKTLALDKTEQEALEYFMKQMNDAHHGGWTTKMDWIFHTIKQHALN
# Sequence (P27986 whole entry partner): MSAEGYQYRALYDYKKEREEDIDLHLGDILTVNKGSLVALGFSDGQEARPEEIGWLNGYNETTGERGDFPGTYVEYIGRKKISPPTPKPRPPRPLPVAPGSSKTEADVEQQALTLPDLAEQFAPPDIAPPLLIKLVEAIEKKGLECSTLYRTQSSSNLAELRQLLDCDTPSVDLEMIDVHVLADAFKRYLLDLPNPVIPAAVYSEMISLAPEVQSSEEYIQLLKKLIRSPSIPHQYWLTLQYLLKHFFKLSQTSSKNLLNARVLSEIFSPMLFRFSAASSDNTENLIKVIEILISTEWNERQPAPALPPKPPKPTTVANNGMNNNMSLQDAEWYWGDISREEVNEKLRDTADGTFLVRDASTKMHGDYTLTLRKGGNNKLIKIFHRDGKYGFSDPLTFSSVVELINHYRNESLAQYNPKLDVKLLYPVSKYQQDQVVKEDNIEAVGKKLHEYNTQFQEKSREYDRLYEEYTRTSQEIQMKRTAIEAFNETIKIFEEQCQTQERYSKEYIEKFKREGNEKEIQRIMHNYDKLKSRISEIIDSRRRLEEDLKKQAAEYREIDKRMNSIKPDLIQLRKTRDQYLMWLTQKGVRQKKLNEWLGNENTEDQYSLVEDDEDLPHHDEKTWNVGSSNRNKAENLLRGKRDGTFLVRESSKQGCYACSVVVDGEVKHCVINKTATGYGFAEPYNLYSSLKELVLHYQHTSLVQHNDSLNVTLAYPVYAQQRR
# PROCEDURE_DETAILS: Enzyme Inhibition Assay (HTRF PI3K enzyme assay, TR-FRET)
# Assay type: biochemical
# CONDITION_INFO: activity range; read-out: PI3 Kinase Inhibition IC50 values at stated Isozyme α

I have 2 compounds here; please give me IC50 for each one.
1. C#Cc1cccc2nc(Cn3nc(-c4cccc(O)c4)c4c(N)ncnc43)n(Cc3cc(C)on3)c(=O)c12
2. C#Cc1cccc2nc(Cn3nc(-c4ccc(O)cc4)c4c(N)ncnc43)n(Cc3ccccc3)c(=O)c12

result:
0.05 to 1 µM
> 1 µM

###

# ASSAY_TARGET: recombinant PI3 kinase γ (Homo sapiens (Human))
# Sequence (P48736 whole entry): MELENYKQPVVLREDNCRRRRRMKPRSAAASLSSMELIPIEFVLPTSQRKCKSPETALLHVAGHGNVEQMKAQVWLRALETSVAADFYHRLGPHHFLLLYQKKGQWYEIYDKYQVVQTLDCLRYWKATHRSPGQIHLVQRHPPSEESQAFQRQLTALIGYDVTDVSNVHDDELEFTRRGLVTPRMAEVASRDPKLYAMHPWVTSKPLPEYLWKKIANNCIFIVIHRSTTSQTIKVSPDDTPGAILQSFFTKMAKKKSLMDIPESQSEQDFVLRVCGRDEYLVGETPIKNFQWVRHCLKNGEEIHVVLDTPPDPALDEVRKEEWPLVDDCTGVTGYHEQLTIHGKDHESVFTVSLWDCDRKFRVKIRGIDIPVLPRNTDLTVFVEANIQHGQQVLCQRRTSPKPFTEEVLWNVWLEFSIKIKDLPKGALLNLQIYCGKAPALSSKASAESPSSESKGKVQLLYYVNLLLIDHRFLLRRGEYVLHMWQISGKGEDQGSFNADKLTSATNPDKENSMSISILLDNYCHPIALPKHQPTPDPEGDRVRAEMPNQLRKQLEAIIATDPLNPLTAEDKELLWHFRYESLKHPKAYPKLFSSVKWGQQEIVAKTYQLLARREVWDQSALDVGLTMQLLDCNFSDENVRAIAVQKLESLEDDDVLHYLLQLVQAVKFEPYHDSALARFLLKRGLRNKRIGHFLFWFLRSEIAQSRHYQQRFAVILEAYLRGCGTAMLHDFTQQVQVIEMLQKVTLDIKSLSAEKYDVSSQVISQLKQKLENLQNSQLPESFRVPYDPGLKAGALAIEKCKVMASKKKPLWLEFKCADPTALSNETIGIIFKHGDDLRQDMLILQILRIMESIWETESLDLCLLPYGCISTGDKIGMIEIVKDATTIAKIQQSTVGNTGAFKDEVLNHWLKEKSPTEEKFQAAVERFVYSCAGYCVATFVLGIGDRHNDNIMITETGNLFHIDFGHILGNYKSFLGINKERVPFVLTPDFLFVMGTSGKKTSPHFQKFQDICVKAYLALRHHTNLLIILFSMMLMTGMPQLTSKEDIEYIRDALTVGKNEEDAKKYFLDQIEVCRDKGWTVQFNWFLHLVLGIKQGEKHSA
# PROCEDURE_DETAILS: Enzyme Inhibition Assay (HTRF PI3K enzyme assay, TR-FRET)
# Type: biochemical
# CONDITION_INFO: activity range; read-out: PI3 Kinase Inhibition IC50 values at stated Isozyme γ
MEASUREMENT_LABEL: IC50

Answered cases to consult:
C#Cc1cccc2nc(Cn3nc(-c4ccc(O)cc4)c4c(N)ncnc43)n(Cc3ccc(S(C)(=O)=O)cc3)c(=O)c12 [Example 20] :: 50 to 1000 nM
N#Cc1cccc(Cn2c(Cn3nc(-c4cccc(O)c4)c4c(N)ncnc43)nc3cccc(C#CCOCCOCCO)c3c2=O)c1 [Example 6] :: 50 to 1000 nM
CC(=O)N1CCN(C(=O)CCCC#Cc2cccc3nc(Cn4nc(-c5ccc(O)cc5)c5c(N)ncnc54)n(Cc4ccccc4Cl)c(=O)c23)CC1 [Example 71] :: < 50 nM
Nc1ncnc2c1c(-c1cccc(O)c1)nn2Cc1nc2cccc(C#CCCCC(=O)N3CCOCC3)c2c(=O)n1Cc1ccc2occc2c1 [Example 67] :: < 50 nM
COCC#Cc1cccc2nc(Cn3nc(-c4ccc(O)cc4)c4c(N)ncnc43)n(Cc3ccccc3Cl)c(=O)c12 [Example 28] :: 50 to 1000 nM
Nc1ncnc2c1c(-c1cccc(O)c1)nn2Cc1nc2cccc(C#CCOCCN3CCOCC3)c2c(=O)n1Cc1ccccc1Cl [Example 8] :: 50 to 1000 nM
Nc1ncnc2c1c(-c1cccc(O)c1)nn2Cc1nc2cccc(C#CCCCC(=O)N3CCC(N4CCOCC4)CC3)c2c(=O)n1Cc1ccccc1Cl [Example 70] :: < 50 nM
Nc1ncnc2c1c(-c1cccc(O)c1)nn2Cc1nc2cccc(C#CCCC(=O)N3CCOCC3)c2c(=O)n1Cc1ccccc1Cl [Example 56] :: < 50 nM
Nc1ncnc2c1c(-c1ccc(O)cc1)nn2Cc1nc2cccc(C#CCCCC(=O)N3CCCCC3)c2c(=O)n1Cc1ccccc1Cl [Example 58] :: < 50 nM
C#Cc1cccc2nc(Cn3nc(-c4cccc(O)c4)c4c(N)ncnc43)n(Cc3ccc(Cl)cc3)c(=O)c12 [Example 25] :: 50 to 1000 nM

I have 2 compounds here; please give me IC50 for each one.
1. Cc1nc(Cn2c(Cn3nc(-c4cccc(O)c4)c4c(N)ncnc43)nc3cccc(C#CCCCC(=O)N4CCOCC4)c3c2=O)cs1 [Example 68]
2. Nc1ncnc2c1c(-c1ccc(O)cc1)nn2Cc1nc2cccc(C#CCCCC(=O)O)c2c(=O)n1Cc1ccccc1Cl [Example 4]

result:
< 50 nM
< 50 nM

For record C#Cc1cccc2nc(Cn3nc(-c4cccc(O)c4)c4c(N)ncnc43)n(Cc3ccc(C(F)(F)F)cc3)c(=O)c12 [Example 21] the listed IC50 is 50 to 1000 nM
